TEST_SUMMARY: Therapeutic index, ratio IC50 for human Hep2 cells to IC50 for normal human fibroblasts
Format: cell-based, HEp-2
SETUP_CONDITIONS: Hep2 cells versus normal human fibroblasts, read-out: Ratio IC50
TEST_READOUT: selectivity ratio
Give a plain numeric answer without units written out.

**Query** // selectivity ratio lookup, key: "CC(=O)N(/N=N/c1ccc([N+](=O)[O-])cc1Cl)c1ccc([N+](=O)[O-])cc1Cl"
**Result** 0.044

* * *

TEST_SUMMARY: Therapeutic index, ratio IC50 for human RT112 cells to IC50 for normal human fibroblasts
Assay type: cell-based, RT-112
SETUP_CONDITIONS: RT112 cells versus normal human fibroblasts, read-out: Ratio IC50
TEST_READOUT: selectivity ratio
When you answer, write just the number.

**Query** Reported selectivity ratio, compound "CC(=O)N(/N=N/c1ccc([N+](=O)[O-])cc1Cl)c1ccc([N+](=O)[O-])cc1Cl" : ____
**Result** 0.514

// provenance: ChEMBL document CHEMBL1806465
